- target or system: ROMK (Kir1.1) channel (Homo sapiens (Human))
- method notes: Thallium Flux Assay
experimental endpoint: IC50 (nM)

CC1=C(N2CCC3(CCN(C[C@@H](O)c4ccc5c(c4C)CCc4nnnn4-5)CC3)C2=O)COC1=O    47
CC1=C(N2CCC3(CCN(C[C@@H](O)c4ccc5c(c4Cl)Cn4nnnc4-5)CC3)C2=O)COC1=O    9
CC1=C(N2CCC3(CCN(CC(O)c4ccc5c(c4)[C@H](C)n4nnnc4-5)CC3)C2=O)COC1=O (some centres unmarked) [Example 27A]    87
C[C@H]1CC2(CCN(C[C@@H](O)c3ccc4c(c3)CCc3nnnn3-4)CC2)C(=O)N1C1=CC(=O)OC1    14
CO[C@@H](CN1CCC2(CC1)CCN(C1=C(C)C(=O)OC1)C2=O)c1ccc2c(c1)Cn1nnnc1-2    239
C[C@H]1CC2(CCN(C[C@@H](O)c3ccc4c(ccc5nnnn54)c3)CC2)C(=O)N1C1=CC(=O)OC1    10
CC1=C(N2CCC3(CCN(C[C@@H](O)c4ccc5c(c4C)Cn4nnnc4-5)CC3)C2=O)COC1=O    16
CC1=C(N2CC[C@@]3(CCN(C[C@@H](O)c4ccc5c(c4)Cn4nnnc4-5)C[C@@H]3F)C2=O)COC1=O    111
CC1=C(N2CC[C@@]3(CCN(C[C@H](O)c4ccc5c(c4)Cn4nnnc4-5)C[C@@H]3F)C2=O)COC1=O    35
CC1=C(N2CCC3(CCN(C[C@H](O)c4ccc5c(c4)Cn4nnnc4-5)CC3)C2=O)COC1=O    13
C[C@H]1CC2(CCN(C[C@H](O)c3ccc4c(c3)CCc3nnnn3-4)CC2)C(=O)N1C1=CC(=O)OC1    23
C[C@@H]1CC2(CCN(C[C@H](O)c3ccc4c(ccc5nnnn54)c3)CC2)C(=O)N1C1=CC(=O)OC1    32
CC1=C(N2CCC3(CCN(C[C@H](O)c4ccc5c(c4C)Cn4nnnc4-5)CC3)C2=O)COC1=O    17
CC1=C(N2CCC3(CCN(C(CO)c4ccc5c(c4)CCc4nnnn4-5)CC3)C2=O)COC1=O (centres unmarked)    421

====

- target or system: ROMK (Kir1.1) channel (Homo sapiens (Human), UniProt P48048)
- Sequence (P48048 whole entry): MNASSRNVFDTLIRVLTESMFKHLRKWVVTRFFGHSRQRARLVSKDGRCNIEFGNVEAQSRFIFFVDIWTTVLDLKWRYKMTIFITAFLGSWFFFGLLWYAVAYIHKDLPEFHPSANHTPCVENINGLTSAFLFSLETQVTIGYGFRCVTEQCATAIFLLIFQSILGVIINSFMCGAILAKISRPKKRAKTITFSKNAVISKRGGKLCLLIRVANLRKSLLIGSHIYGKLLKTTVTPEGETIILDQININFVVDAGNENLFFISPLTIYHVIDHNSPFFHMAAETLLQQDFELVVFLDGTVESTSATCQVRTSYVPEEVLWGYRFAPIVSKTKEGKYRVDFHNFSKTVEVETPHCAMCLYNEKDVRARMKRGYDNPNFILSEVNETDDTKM
- method notes: Thallium Flux Assay
experimental endpoint: IC50 (nM)

C[C@@H]1CC2(CCN(C[C@H](O)c3ccc4c(c3)CCc3nnnn3-4)CC2)C(=O)N1C1=CC(=O)OC1    188
C[C@@H]1CC2(CCN(C[C@@H](O)c3ccc4c(c3)CCc3nnnn3-4)CC2)C(=O)N1C1=CC(=O)OC1    284
C[C@@H]1CC2(CCN(C[C@@H](O)c3ccc4c(ccc5nnnn54)c3)CC2)C(=O)N1C1=CC(=O)OC1    7
CC1=C(N2CCC3(CCN(C[C@@H](O)c4ccc5c(ccc6nnnn65)c4)CC3)C2=O)COC1=O    19
CC1=C(N2CC[C@]3(CCN(C[C@H](O)c4ccc5c(c4)Cn4nnnc4-5)C[C@H]3F)C2=O)COC1=O    43
CC1=C(N2CCC3(CCN(CC(O)c4ccc5c(c4)[C@@H](C)n4nnnc4-5)CC3)C2=O)COC1=O (stereo partly shown) [Example 27B]    27
CC1=C(N2CCC3(CCN(C[C@@H](O)c4cc5c(cc4C4CC4)-c4nnnn4C5)CC3)C2=O)COC1=O    82

Values compiled from patent US10208064B2.
